Values compiled from patent US20090012085A1.

experiment.notes: Phase I dose-escalating study, plasma pharmacokinetics in patients with solid tumor
Format: in vivo, human
experimental.conditions: human, plasma, 200 mg, 200 mg QD (4/1), C2D28 (n = 5), plasma; read-out: Cmax, mean (% CV)

- molecule: "Cc1[nH]c(/C=C2\\C(=O)Nc3ccc(F)cc32)c(C)c1C(=O)NC[C@H](O)CN1CCOCC1 [compound 1]"
  Cmax / ng/mL: 375

====

experiment.notes: Phase I dose-escalating study, plasma pharmacokinetics in patients with solid tumor
Type: in vivo, human
experimental.conditions: human, plasma, 100 mg, 100 mg QD (continuous), C1D28 (n = 6), plasma; read-out: t½, mean (% CV) (converted)

- smiles.record: "Cc1[nH]c(/C=C2\\C(=O)Nc3ccc(F)cc32)c(C)c1C(=O)NC[C@H](O)CN1CCOCC1"
  half-life: "11.4 h"
